Test system: CAF#4 (primary prostate cancer-associated fibroblasts of iCAF-like type)
Test: drug sensitivity score (DSS2, normalised partial AUC of dose-response, 72 h CellTiter-Glo viability) (DSS (dimensionless)); higher = more sensitive (stronger growth inhibition / cytotoxicity); extreme values may be limits of the assay
Experimental Readout: drug sensitivity score
Give only the figure.

Molecule	drug sensitivity score
COc1cccc2c1C(=O)c1c(O)c3c(c(O)c1C2=O)C[C@@](O)(C(C)=O)C[C@@H]3O[C@H]1C[C@H](N)[C@H](O)[C@H](C)O1 [Daunorubicin] (tested concentration range 0.1-1000 nM)	4.2

Task: Form field: drug sensitivity score recorded for C[C@@H]1CN(CC(=O)Nc2ccc3c(c2)Cc2cccc(-c4cc(=O)cc(N5CCOCC5)o4)c2S3)C[C@H](C)O1 (tested concentration range 2.5-25000 nM) with CAF#4 (enter value)
Output: 0

Task: For C#Cc1cccc(Nc2ncnc3cc(OCCOC)c(OCCOC)cc23)c1 [Erlotinib] (tested concentration range 1-10000 nM) then?
Output: 4.8

* * *

Recorded drug sensitivity score values for a group of compounds are listed next.
System: CAF#2 (primary prostate cancer-associated fibroblasts of iCAF-like type)
Assay: drug sensitivity score (DSS2, normalised partial AUC of dose-response, 72 h CellTiter-Glo viability) (DSS (dimensionless)); higher = more sensitive (stronger growth inhibition / cytotoxicity); extreme values may be limits of the assay
Give only the figure.

Compound	drug sensitivity score
C=CCc1cccc(/C=N/NC(=O)CN2CCN(Cc3ccccc3)CC2)c1O [PAC-1] (tested concentration range 1-10000 nM)	3.6

Task: State the recorded drug sensitivity score for this entry: CC(=O)[C@]1(O)Cc2c(O)c3c(c(O)c2[C@@H](O[C@H]2C[C@H](N)[C@H](O)[C@H](C)O2)C1)C(=O)c1ccccc1C3=O [Idarubicin] (tested concentration range 0.1-1000 nM)
Output: 12.1

Task: For Cc1ccc(NC(=O)c2ccc(CN3CCN(C)CC3)cc2)cc1Nc1nccc(-c2cccnc2)n1 [Imatinib] (tested concentration range 1-10000 nM) then?
Output: 2.6

Task: For CC(C)Cn1cnc2c(N)nc3ccccc3c21 [Imiquimod] (tested concentration range 0.2-2500 nM) then?
Output: 0

Task: For O=C(O)c1ccc(-c2c[nH]c3ncc(-c4ccccc4)cc23)cc1C1CCCC1 (tested concentration range 1-10000 nM) then?
Output: 2.3

Task: For COc1cc2c(NC3CCN(C(C)C)CC3)nc(C3CCCCC3)nc2cc1OCCCN1CCCC1 [UNC0638] (tested concentration range 1-10000 nM) then?
Output: 0

* * *

Recorded drug sensitivity score values for a group of molecules are listed next.
System: CAF#5 (primary prostate cancer-associated fibroblasts of myCAF-like type)
Assay: drug sensitivity score (DSS2, normalised partial AUC of dose-response, 72 h CellTiter-Glo viability) (DSS (dimensionless)); higher = more sensitive (stronger growth inhibition / cytotoxicity); extreme values may be limits of the assay
Give only the figure.

A selection of reference data follows.
> print(dat)
                                   molecule  measurement
1  COc1cc2ncnc(Nc3ccc(F)c(Cl)c3)c2cc1NC(=O)/C=C/CN1CCCCC1 [Dacomitinib] (tested concentration range 0.1-1000 nM)            0
2  CC[C@@]1(O)C(=O)OCc2c1cc1n(c2=O)Cc2cc3c(CN(C)C)c(O)ccc3nc2-1 [Topotecan] (tested concentration range 1-10000 nM)          6.9
3  CCN(CC)CCNC(=O)c1c(C)[nH]c(/C=C2\C(=O)Nc3ccc(F)cc32)c1C [Sunitinib] (tested concentration range 0.1-1000 nM)          0.3
4  Cc1cccc(CC(=O)N2CCc3c2ccc(-c2cn(C)c4ncnc(N)c24)c3F)n1 (tested concentration range 0.2-2500 nM)            0
5  Nc1nc(F)nc2c1ncn2[C@@H]1O[C@H](CO)[C@@H](O)[C@@H]1O [Fludarabine] (tested concentration range 1-10000 nM)          2.2

Please find the next molecule below.
Task: State the recorded drug sensitivity score for this entry: COc1cccc(OCCCN)c1-c1cc(Nc2cnc(C#N)cn2)n[nH]1 [Prexasertib] (tested concentration range 1-10000 nM)
Output: 9.1

* * *

Tested on: CAF#4
Assay: drug sensitivity score (DSS2, normalised partial AUC of dose-response, 72 h CellTiter-Glo viability) (DSS (dimensionless)); higher = more sensitive (stronger growth inhibition / cytotoxicity); extreme values may be limits of the assay
Recorded drug sensitivity score values for a group of compounds are listed next.
Give only the figure.

> print(dat)
                                   compound  measurement
1  COc1cc2/c(=N/c3ccc(Br)cc3F)nc[nH]c2cc1OCC1CCN(C)CC1 [Vandetanib] (tested concentration range 0.1-1000 nM)          4.6
2  Cc1ccc(NC(=O)c2ccc(CN3CCN(C)CC3)cc2)cc1Nc1nccc(-c2cccnc2)n1 [Imatinib] (tested concentration range 1-10000 nM)            2

Task: State the recorded drug sensitivity score for this entry: CN1CCN(CCOc2cc(OC3CCOCC3)c3c(Nc4c(Cl)ccc5c4OCO5)ncnc3c2)CC1 [Saracatinib] (tested concentration range 1-10000 nM)
Output: 6.7

* * *

Tested on: CAF#7 (primary prostate cancer-associated fibroblasts of myCAF-like type)
Assay: drug sensitivity score (DSS2, normalised partial AUC of dose-response, 72 h CellTiter-Glo viability) (DSS (dimensionless)); higher = more sensitive (stronger growth inhibition / cytotoxicity); extreme values may be limits of the assay
Categories are assigned from the measured drug sensitivity score using these intervals: one: < 4; two: ≥ 4 and < 7; three: ≥ 7

# count of solved cases: 5
Compound	Label Class
C=CCn1c(=O)c2cnc(Nc3ccc(N4CCN(C)CC4)cc3)nc2n1-c1cccc(C(C)(C)O)n1 [Adavosertib] (tested concentration range 1-10000 nM)	three
CC[C@@]1(O)C(=O)OCc2c1cc1n(c2=O)Cc2cc3c(CN(C)C)c(O)ccc3nc2-1 [Topotecan] (tested concentration range 1-10000 nM)	two
CN1CCN(C2CCC(n3cc(-c4ccc(Oc5ccccc5)cc4)c4c(N)ncnc43)CC2)CC1 (stereo unspecified) (tested concentration range 1-10000 nM)	three
CC(C)c1cc(C(=O)N2Cc3ccc(CN4CCN(C)CC4)cc3C2)c(O)cc1O [Onalespib] (tested concentration range 0.2-2500 nM)	three
O=C(O)C(=O)O.[NH-][C@@H]1CCCC[C@H]1[NH-].[Pt+2] [Oxaliplatin] (tested concentration range 10-100000 nM)	three

With those in mind, consider the next compound.
Task: Would you mind sorting Nc1nc(Nc2ccc3c(c2)CC[C@@H](N2CCCC2)CC3)nn1-c1cc2c(nn1)-c1ccccc1CCC2 [Bemcentinib] (tested concentration range 1-10000 nM) into the appropriate category?
Output: one

* * *

System: CAF#5
Experiment: drug sensitivity score (DSS2, normalised partial AUC of dose-response, 72 h CellTiter-Glo viability) (DSS (dimensionless)); higher = more sensitive (stronger growth inhibition / cytotoxicity); extreme values may be limits of the assay
Recorded drug sensitivity score values for a group of compounds are listed next.
Give only the figure.

A selection of reference data follows.
Compound	drug sensitivity score
CO[C@@]12[C@H](COC(N)=O)C3=C(C(=O)C(C)=C(N)C3=O)N1C[C@@H]1N[C@@H]12 [Mitomycin C] (tested concentration range 1-10000 nM)	0
CCCCCOC(=O)Nc1nc(=O)n([C@@H]2O[C@H](C)[C@@H](O)[C@H]2O)cc1F [Capecitabine] (tested concentration range 1-10000 nM)	0
O=c1[nH]c(=O)n([C@H]2C[C@H](O)[C@@H](CO)O2)cc1C(F)(F)F [Trifluridine] (tested concentration range 1-10000 nM)	0

Task: State the recorded drug sensitivity score for this entry: CC(C)c1cc(-c2n[nH]c(=O)n2-c2ccc3c(ccn3C)c2)c(O)cc1O [Ganetespib] (tested concentration range 0.1-1000 nM)
Output: 22.3

Task: For CC(=O)c1cc2c(o1)C(=O)c1ccccc1C2=O [Napabucasin] (tested concentration range 2-20000 nM) then?
Output: 11.7

* * *

Tested on: CAF#2
Assay: drug sensitivity score (DSS2, normalised partial AUC of dose-response, 72 h CellTiter-Glo viability) (DSS (dimensionless)); higher = more sensitive (stronger growth inhibition / cytotoxicity); extreme values may be limits of the assay
Recorded drug sensitivity score values for a group of compounds are listed next.

Compound	Experimental Readout	Measurement
COc1cc(CCc2cc(NC(=O)c3ccc(N4CC(C)NC(C)C4)cc3)n[nH]2)cc(OC)c1 (stereo unspecified) [AZD4547] (tested concentration range 0.1-1000 nM)	drug sensitivity score	2.5
CCOC(=O)CCNc1cc(N2CCc3ccccc3CC2)nc(-c2ccccn2)n1 [GSK-J4] (tested concentration range 10-100000 nM)	drug sensitivity score	4.3
Nc1cccc2c1CN(C1CCC(=O)NC1=O)C2=O (stereo unspecified) [Lenalidomide] (tested concentration range 10-100000 nM)	drug sensitivity score	2.2
CN(C)C/C=C/C(=O)Nc1cc2c(Nc3ccc(F)c(Cl)c3)ncnc2cc1O[C@H]1CCOC1 [Afatinib] (tested concentration range 0.1-1000 nM)	drug sensitivity score	0.3
CCCOc1ccn2c(C(C)=O)cc(-c3ccccc3S(C)(=O)=O)c2c1 [GSK2801] (tested concentration range 1-10000 nM)	drug sensitivity score	0

Task: State the recorded drug sensitivity score for this entry: N.N.[Cl][Pt][Cl] [Cisplatin] (tested concentration range 10-100000 nM)
Output: 18.1
